Data origin: patent US12673946B2

The compounds listed here are annotated with their IC50.
biological target: human TRPV4 (Homo sapiens, UniProt Q9HBA0); construct: host or cells: tetracycline-inducible Flp-In T-REx 293 cells; test: Hypotonicity-induced Ca2+ influx (Fluo-4, FDSS); type: cell-based; conditions: Flp-In T-REx 293 cells stably expressing human TRPV4, compounds listed by potency bin (<10 nM Tables 96-1/96-2, <3 nM Table 97)
Sequence (Q9HBA0 whole entry): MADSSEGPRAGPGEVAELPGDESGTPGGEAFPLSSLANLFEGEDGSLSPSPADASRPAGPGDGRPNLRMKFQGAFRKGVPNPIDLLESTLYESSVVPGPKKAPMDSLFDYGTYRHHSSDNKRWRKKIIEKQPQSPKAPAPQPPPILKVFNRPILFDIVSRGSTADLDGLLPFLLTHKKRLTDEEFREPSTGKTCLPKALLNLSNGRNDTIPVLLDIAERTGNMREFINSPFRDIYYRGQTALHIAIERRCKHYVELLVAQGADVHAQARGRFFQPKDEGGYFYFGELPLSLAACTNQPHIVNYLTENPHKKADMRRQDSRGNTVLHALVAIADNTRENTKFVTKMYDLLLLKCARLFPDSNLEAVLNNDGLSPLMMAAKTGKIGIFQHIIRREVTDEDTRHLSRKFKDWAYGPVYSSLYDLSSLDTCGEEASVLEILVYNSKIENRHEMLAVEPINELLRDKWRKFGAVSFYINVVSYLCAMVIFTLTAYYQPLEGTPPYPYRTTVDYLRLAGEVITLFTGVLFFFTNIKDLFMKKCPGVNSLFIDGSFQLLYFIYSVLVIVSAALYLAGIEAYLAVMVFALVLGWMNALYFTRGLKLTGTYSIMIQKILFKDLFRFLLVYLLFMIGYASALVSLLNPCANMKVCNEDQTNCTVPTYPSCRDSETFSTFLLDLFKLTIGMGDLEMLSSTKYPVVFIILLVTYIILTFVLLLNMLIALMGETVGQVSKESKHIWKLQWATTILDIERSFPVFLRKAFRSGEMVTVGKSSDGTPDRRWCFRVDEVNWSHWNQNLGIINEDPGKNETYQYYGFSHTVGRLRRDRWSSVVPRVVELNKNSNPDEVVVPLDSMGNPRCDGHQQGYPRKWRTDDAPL

Past entries and their recorded results:
{"COMPOUND": "O=C(C(O)c1cccc(C2CC2)c1)N1CCCc2nc(C3(c4cccc(Cl)c4)CC3)[nH]c(=O)c2C1 (stereo not shown)", "IC50": "< 10 nM"}
{"COMPOUND": "CC(C)(C)c1cccc(C(O)C(=O)N2CCCc3nc(C4(c5cccc(F)c5)CC4)[nH]c(=O)c3C2)c1 (stereo not shown)", "IC50": "< 10 nM"}
{"COMPOUND": "O=C([C@H](O)c1cccc(-c2coc3ccccc23)c1)N1CCc2nc(C3(c4ccccc4)CC3)[nH]c(=O)c2C1", "IC50": "< 10 nM"}

Query: Query (compound): O=C(C(O)c1cccc(-c2cccc(OC(F)(F)F)c2)c1)N1CCCc2nc(C3(c4ccccc4)CC3)[nH]c(=O)c2C1 (stereo not shown) ; field requested: IC50
Result: < 10 nM

Query: Query (compound): O=C(C(O)c1cccc(-c2ccc(OC(F)(F)F)cc2)c1)N1CCCc2nc(C3(c4ccccc4)CC3)[nH]c(=O)c2C1 (stereo not shown) ; field requested: IC50
Result: < 10 nM

Query: Query (compound): O=C(Cc1cccc(-c2coc3ccccc23)c1)N1CCCc2nc(C3(c4cccc(Cl)c4)CC3)[nH]c(=O)c2C1 ; field requested: IC50
Result: < 10 nM

Query: Query (compound): CC(C)c1cncc(C2(c3nc4c(c(=O)[nH]3)CN(C(=O)C(F)(F)c3cccc(Cl)c3)CCC4)CC2)c1 ; field requested: IC50
Result: < 3 nM

* * *

Biological target: human TRPV4 (Homo sapiens, UniProt Q9HBA0)
Construct: host or cells: tetracycline-inducible Flp-In T-REx 293 cells
Assay: Hypotonicity-induced Ca2+ influx (Fluo-4, FDSS)
Assay type: cell-based
Conditions: Flp-In T-REx 293 cells stably expressing human TRPV4, compounds listed by potency bin (<10 nM Tables 96-1/96-2, <3 nM Table 97)
Experimental: Hypotonicity-Induced Ca^2+ Influx TRPV4 channel activation/opening results in an influx of Ca^2+ (Liedtke, W. et al., 2000 (NPL 1)). The resulting changes in intracellular calcium are monitored using a Ca^2+ sensitive fluorescent dye Fluo-4 (Invitrogen). Dye loaded cells are treated with the test compounds for 5 minutes prior to the addition of a hypotonic solution and the inhibition of the hypotonicity-induced activation is recorded. […]
OUTCOME_MEASURE: IC50

Past entries and their recorded results:
{"SMILES_DATA": "O=C([C@H](O)c1cccc(Cl)c1)N1CCCc2nc(C3(c4cccc(-c5ccccc5)c4)CC3)[nH]c(=O)c2C1", "IC50": "< 3 nM"}
{"SMILES_DATA": "O=C([C@H](O)c1cccc(Cl)c1)N1CCCc2nc(C3(c4cccc(C5=CCCCC5)c4)CC3)[nH]c(=O)c2C1", "IC50": "< 3 nM"}
{"SMILES_DATA": "CC(C)(C)c1cccc(-c2cccc([C@@H](O)C(=O)N3CCCc4nc(C5(c6cccs6)CC5)[nH]c(=O)c4C3)c2)c1", "IC50": "< 10 nM"}
{"SMILES_DATA": "CC(C)N(Cc1ccccc1)C(=O)c1csc(C2(c3nc4c(c(=O)[nH]3)CN(C(=O)[C@H](O)c3cccc(C(F)(F)F)c3)CCC4)CC2)c1", "IC50": "< 10 nM"}

Query: Query (molecule): CC(C)c1cncc(C2(c3nc4c(c(=O)[nH]3)CN(C(=O)[C@H](O)c3cccc(-c5ccc(C(F)(F)F)nc5)c3)CC4)CC2)c1 ; field requested: IC50
Result: < 10 nM

Query: Query (molecule): O=C([C@H](O)c1cccc(C(F)(F)F)c1)N1CCc2nc(C3(c4cncc(C5CCCC5)c4)CC3)[nH]c(=O)c2C1 ; field requested: IC50
Result: < 3 nM

Query: Query (molecule): CNc1cc(-c2cccc(C3(c4nc5c(c(=O)[nH]4)CN(C(=O)[C@H](O)c4cccc(C(F)(F)F)c4)CCC5)CC3)c2)ccn1 ; field requested: IC50
Result: < 10 nM

Query: Query (molecule): CC(C)c1cncc(C2(c3nc4c(c(=O)[nH]3)CN(C(=O)[C@H](O)c3cccc(-c5cccc(C(F)(F)F)c5)c3)CCC4)CC2)c1 ; field requested: IC50
Result: < 10 nM

* * *

Target: human TRPV4 (Homo sapiens, UniProt Q9HBA0)
Construct: host or cells: tetracycline-inducible Flp-In T-REx 293 cells
Experiment: Hypotonicity-induced Ca2+ influx (Fluo-4, FDSS)
Type: cell-based
Conditions: Flp-In T-REx 293 cells stably expressing human TRPV4, compounds listed by potency bin (<10 nM Tables 96-1/96-2, <3 nM Table 97)
Description: Hypotonicity-Induced Ca^2+ Influx TRPV4 channel activation/opening results in an influx of Ca^2+ (Liedtke, W. et al., 2000 (NPL 1)). The resulting changes in intracellular calcium are monitored using a Ca^2+ sensitive fluorescent dye Fluo-4 (Invitrogen). Dye loaded cells are treated with the test compounds for 5 minutes prior to the addition of a hypotonic solution and the inhibition of the hypotonicity-induced activation is recorded. […]
The compounds listed here are annotated with their IC50.

Past entries and their recorded results:
{"COMPOUND": "O=C([C@H](O)c1cccc(-c2cccc(OC(F)(F)F)c2)c1)N1CCCc2nc(C3(c4cccs4)CC3)[nH]c(=O)c2C1 [53-2]", "RESULT": "< 3 nM"}
{"COMPOUND": "Cc1ccc(-c2cccc(C3(c4nc5c(c(=O)[nH]4)CN(C(=O)[C@H](O)c4cccc(C(F)(F)F)c4)CCC5)CC3)c2)cc1 [42-57]", "RESULT": "< 10 nM"}

Now, please, on to the next compound.
Query: Query (compound): O=C(Cc1cccc(-c2cccc(C(F)(F)F)c2)c1)N1CCCc2nc(C3(c4ccccc4)CC3)[nH]c(=O)c2C1 [57-3] ; field requested: IC50
Result: < 10 nM

* * *

target: human TRPV4 (Homo sapiens, UniProt Q9HBA0); construct: host or cells: tetracycline-inducible Flp-In T-REx 293 cells; assay: Hypotonicity-induced Ca2+ influx (Fluo-4, FDSS); type: cell-based; conditions: Flp-In T-REx 293 cells stably expressing human TRPV4, compounds listed by potency bin (<10 nM Tables 96-1/96-2, <3 nM Table 97)
OUTCOME_MEASURE: IC50

Past entries and their recorded results:
{"COMPOUND": "CC(C)c1csc(C2(c3nc4c(c(=O)[nH]3)CN(C(=O)[C@H](O)c3cccc(-c5cccc(C(C)(C)C)c5)c3)CCC4)CC2)c1", "IC50": "< 3 nM"}
{"COMPOUND": "O=C(C(O)c1cccc(-c2ccc(Cl)c(F)c2)c1)N1CCc2nc(C3(c4ccccc4)CC3)[nH]c(=O)c2C1 (stereo not drawn)", "IC50": "< 10 nM"}
{"COMPOUND": "CC(C)(C)c1cc(-c2cccc([C@@H](O)C(=O)N3CCc4nc(C5(c6ccccc6)CC5)[nH]c(=O)c4C3)c2)cc(C(C)(C)C)c1", "IC50": "< 10 nM"}
{"COMPOUND": "O=C([C@H](O)c1cccc(C(F)(F)F)c1)N1CCCc2nc(C3(c4cccc(-c5ccc(C6(O)CCOCC6)cc5)c4)CC3)[nH]c(=O)c2C1", "IC50": "< 10 nM"}
{"COMPOUND": "CC(C)c1cncc(C2(c3nc4c(c(=O)[nH]3)CN(C(=O)[C@H](O)c3cccc(Cl)c3)CC4)CC2)c1", "IC50": "< 10 nM"}

Query: Query (compound): O=C([C@H](O)c1cccc(C(F)(F)F)c1)N1CCCc2nc(C3(c4cccc(-c5cccnc5)c4)CC3)[nH]c(=O)c2C1 ; field requested: IC50
Result: < 3 nM

Query: Query (compound): O=C([C@H](O)c1cccc(-c2cccc(OC(F)(F)F)c2)c1)N1CCCc2nc(C3(c4cncc(C5CCCCC5)c4)CC3)[nH]c(=O)c2C1 ; field requested: IC50
Result: < 10 nM

Query: Query (compound): O=C(C(O)c1cccc(Oc2ccccc2)c1)N1CCCc2nc(C3(c4cccc(Cl)c4)CC3)[nH]c(=O)c2C1 (stereo not drawn) ; field requested: IC50
Result: < 10 nM

Query: Query (compound): CC(C)c1cccc(C2(c3nc4c(c(=O)[nH]3)CN(C(=O)[C@H](O)c3cccc(-c5cccc(C(C)(C)C)c5)c3)CCC4)CC2)c1 ; field requested: IC50
Result: < 10 nM

Query: Query (compound): O=C([C@H](O)c1cccc(Cl)c1)N1CCCc2nc(C3(c4cccc(Oc5ccccc5)c4)CC3)[nH]c(=O)c2C1 ; field requested: IC50
Result: < 3 nM

Query: Query (compound): O=C(Cc1cccc(SC(F)(F)F)c1)N1CCCc2nc(C3(c4cccc(Cl)c4)CC3)[nH]c(=O)c2C1 ; field requested: IC50
Result: < 10 nM

Query: Query (compound): O=C(C(O)c1cccc(-c2ccc(Cl)cc2)c1)N1CCCc2nc(C3(c4cccc(Cl)c4)CC3)[nH]c(=O)c2C1 (stereo not drawn) ; field requested: IC50
Result: < 10 nM

Query: Query (compound): O=C([C@H](O)c1cccc(Cl)c1)N1CCc2nc(C3(c4cc(C5CCC(F)(F)CC5)cs4)CC3)[nH]c(=O)c2C1 ; field requested: IC50
Result: < 10 nM

Query: Query (compound): O=C(N1CCCc2nc(C3(c4cccs4)CC3)[nH]c(=O)c2C1)C(F)(F)c1cccc(Cl)c1 ; field requested: IC50
Result: < 10 nM

Query: Query (compound): O=C([C@H](O)c1cccc(-c2ccc(Cl)c(Cl)c2)c1)N1CCc2nc(C3(c4ccccc4)CC3)[nH]c(=O)c2C1 ; field requested: IC50
Result: < 10 nM
